test: qHTS drug screen for cell cycle checkpoint inhibitors in PARPi-resistant BRCA-mutant ovarian cancer cell lines. (AID 1963452)
studyConditions: PEO1/OlaR viability, CellTiter-Glo luminescence, 96 h; stronger effect = lower value
Entries are grouped by Z-AUC into these classes: bin 1: < 0.03; bin 2: ≥ 0.03 and < 0.7; bin 3: ≥ 0.7

molecule: O=C(CBr)N1CC([N+](=O)[O-])([N+](=O)[O-])C1
className: bin 3
--
molecule: COC[C@H]1OC(=O)c2coc3c2[C@@]1(C)C1=C(C3=O)[C@@H]2CC[C@H](O)[C@@]2(C)C[C@H]1OC(C)=O
className: bin 1
--
molecule: O=C(O)CNC(=O)C1C(=O)N(C2CCCCC2)C(=O)N(C2CCCCC2)C1=O
className: bin 2
--
molecule: CN1[C@@H]2CC(O)C[C@H]1[C@@H]1O[C@@H]12 (stereo partly drawn)
className: bin 2
--
molecule: C[C@@H](C1CC[C@@]2(O)C3=CC(=O)[C@@H]4C[C@@H](O)[C@@H](O)C[C@]4(C)[C@H]3CC[C@]12C)[C@H](O)CCC(C)(C)O (stereo partly drawn)
className: bin 2
--
molecule: CC(N[C@H]1C[C@@H]1c1ccccc1)c1ccc2c(c1)OCCO2 (stereo partly drawn)
className: bin 1
--
molecule: Cc1[nH]ncc1-c1cc2nc([C@@H]3CC4CCN3CC4)[nH]c(=O)c2s1
className: bin 3
--
molecule: COc1cc(C)[nH]c(=O)c1CNC(=O)c1c(C)n([C@H](C)C2CCN(CC(F)(F)F)CC2)c2ccccc12
className: bin 3
--
molecule: C/C=C(\C)C(=O)N[C@@H](c1ccccc1)[C@@H](O)C(=O)O[C@H]1C[C@@]2(O)[C@@H](OC(=O)c3ccccc3)[C@@H]3[C@]4(OC(C)=O)CO[C@@H]4C[C@H](O)[C@@]3(C)C(=O)[C@H](OC(C)=O)C(=C1C)C2(C)C
className: bin 1
--
molecule: CO[C@H]1CCC(O[C@H]2C[C@H]([C@]3(C)CC[C@]4(C[C@H](O)[C@@H](C)[C@@H]([C@@H](C)/C=C(\C)C(=O)[C@H](C)C[C@H](C)C(=O)O)O4)O3)O[C@]3(O[C@@H]([C@H]4O[C@@](O)(CO)[C@H](C)C[C@@H]4C)C[C@@H]3C)[C@@H]2C)O[C@@H]1C (stereo partly drawn)
className: bin 1
--
molecule: CN1C(=O)[C@@H](NC(=O)[C@H](CCC(F)(F)F)[C@H](CCC(F)(F)F)C(N)=O)N=C(c2ccccc2)c2ccccc21
className: bin 1
--
molecule: CCCCCCC(C)(C)c1cc(O)c2c(c1)OC(C)(C)C1CC=C(CO)C[C@H]21 (stereo partly drawn)
className: bin 3
--
molecule: C[C@H]1[C@H](O)[C@@H](C)/C=C/C=C/CC/C=C/C=C/C=C/C=C/[C@H](O[C@@H]2O[C@H](C)[C@@H](O)[C@H](N)[C@@H]2O)C[C@@H]2O[C@](O)(C[C@@H](O)[C@H](O)CC[C@@H](O)C[C@@H](O)C[C@@H](O)CC(=O)O[C@H]1C)C[C@H](O)[C@H]2C(=O)O
className: bin 3
